Reported Cooperativity (alpha factor) values are given for each entry in this list.
# testedSystem: human M2 receptor (Homo sapiens, UniProt P08172)
# Construct: expressed in transfected cells; host or cells: CHO-DUKX (CHO-DUKX-M2-GIRK)
# Sequence (P08172 whole entry): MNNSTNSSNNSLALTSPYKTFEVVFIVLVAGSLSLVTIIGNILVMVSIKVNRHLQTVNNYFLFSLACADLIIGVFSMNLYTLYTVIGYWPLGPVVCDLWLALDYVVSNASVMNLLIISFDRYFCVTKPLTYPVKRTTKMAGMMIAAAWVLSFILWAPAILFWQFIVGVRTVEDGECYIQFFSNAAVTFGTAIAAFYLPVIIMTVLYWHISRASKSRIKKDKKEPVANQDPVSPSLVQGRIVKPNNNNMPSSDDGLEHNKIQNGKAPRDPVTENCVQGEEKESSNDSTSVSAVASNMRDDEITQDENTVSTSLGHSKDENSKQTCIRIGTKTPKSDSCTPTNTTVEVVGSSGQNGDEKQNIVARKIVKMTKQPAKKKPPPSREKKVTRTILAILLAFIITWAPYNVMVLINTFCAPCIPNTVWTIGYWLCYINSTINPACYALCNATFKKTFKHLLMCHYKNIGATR
# methodNotes: Functional M2-GIRK1/4 activation test: positive cooperativity (α factor), shift of acetylcholine dose-response curve
# Assay type: cell-based
# conditionLabel: Allosteric EC50 shift of acetylcholine 8-point dose-response curve; CHO-DUKX-M2-GIRK cells; α>1 = positive cooperativity
Answer field: number only, no words.

Worked set:
>>> recordedresult("CC[C@H](NC(=O)c1cn(-c2c(F)cc(F)cc2F)c2nc(N3CC[C@H](O)C3)c(F)cc2c1=O)C(F)(F)F")
53
>>> recordedresult("CC[C@H](NC(=O)c1cn(-c2c(F)cc(F)cc2F)c2nc(N3C[C@@H](O)[C@@H](O)C3)c(F)cc2c1=O)C(F)(F)F")
50
>>> recordedresult("C[C@H](NC(=O)c1cn(-c2c(F)cc(F)cc2Cl)c2nc(N3C[C@@H](O)[C@H](O)C3)c(F)cc2c1=O)C(F)(F)F (single isomer, unassigned)")
31

Attention now turns to another entry.
Data request: Input CCC(NC(=O)c1cn(-c2c(F)cc(F)cc2F)c2nc(N3CC(CO)(CO)C3)c(F)cc2c1=O)C(F)(F)C(F)(F)F (racemic) [Example 173] , output reported Cooperativity (alpha factor).
Data returned: 39

Numbers sourced from patent US11472803B2.
